Values were extracted from patent EP4324928A1.

Test: Stability test of methyl donors in phosphate buffer (1H NMR, hydrolysis and phosphorolysis)
Settings: pH 8.4
Where a name gives a salt, the structure may show the parent alone.
half-life listing for selected compounds.
Readout kind: half-life (h)

> print(dat)
                                   compound  readout.kind  assay.result
1  COS(=O)(=O)c1ccc(C)cc1 [MeOTs, methyl 4-toluenesulfonate]     half-life            21
2  COS(C)(=O)=O [MMSa, methyl methanesulfonate]     half-life            28
3    COS(=O)(=O)OC [DMSa, dimethyl sulfate]     half-life          0.95

---

Test: physchem
Type: physicochemical
Details: buffer, pH 8
Counter-ions that a name gives are not always drawn.
Readout kind: half-life

> print(dat)
                                   compound  assay.result
1  O=S1(=O)OCCO1 [ethylene sulfate, Ethylene sulfate]        11 min
